These measurements were taken from PubChem BioAssay (NCATS).

# System: 7G8
# Experiment summary: qHTS profiling for inhibitors of Plasmodium falciparum proliferation (AID 504749); note: nearly all actives have a fitted effect of over 60% in size
# Setup conditions: P. falciparum in erythrocytes, SYBR Green DNA, 72 h; series mostly up to 28.7 µM
Records with an inconclusive call do not appear. Calls of active or inactive are those of the source. Calls come from the whole dose curve; as a rule, active = well fitted inhibition curve with a large enough effect; inconclusive = small, poorly fitted or top-dose-only effect; inactive = flat fitted curve, though single readings scatter.
// classify into active, inactive

Use the examples below as a reference point.
# Compound, Label class
data = [
    ("N#CC(C#N)=Cc1cc(O)c(O)c(O)c1", "active"),
    ("C[N+]1(C)C2CCC1CC(OC(=O)c1c[nH]c3ccccc13)C2 (stereo not given)", "inactive"),
    ("O=P(O)(O)C(Cl)(Cl)P(=O)(O)O", "inactive"),
    ("O=C1CCO1", "inactive"),
]

Ask: For `C=CCN(C1=NCCN1)c1c(Cl)cccc1Cl` , what call appears in the results of this test?
Result: inactive

Ask: Name the outcome recorded for `Cn1sc(Cl)cc1=O` in the assay.
Result: inactive

Ask: Answer briefly: the call reported for O=C(NCNC(=O)NC1C(=O)NC(=O)N1CO)NC1C(=O)NC(=O)N1CO (stereo not given) in this assay.
Result: inactive
